FYI, the data here is from the supplement of paper PMC9694430.

Each record here notes measured thermal shift delta Tm.
tested on: LOC_OS02G08530-cb003; test: thermal shift delta Tm vs DMSO control; higher = stronger stabilization (binding); settings: 12.5 µM; protein concentration 2 µM;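 note: purified Escherichia coli-expressed rice kinase domain construct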

# MOLECULE, thermal shift delta Tm [°C]
measured = [
    ("CS(=O)(=O)c1cccc(CNc2nc(Nc3ccc4c(c3)CCC(=O)N4)ncc2C(F)(F)F)c1", 2.07),
    ("CO[C@H]1C[C@@H]2CC[C@@H](C)[C@@](O)(O2)C(=O)C(=O)N2CCCC[C@H]2C(=O)O[C@H]([C@H](C)C[C@@H]2CC[C@@H](OC(=O)C(C)(CO)CO)[C@H](OC)C2)CC(=O)[C@H](C)/C=C(\\C)[C@@H](O)[C@@H](OC)C(=O)[C@H](C)C[C@H](C)/C=C/C=C/C=C/1C", 0.57),
    ("O=C(Nc1cccnc1)c1cc(-c2ccnc(F)c2)ccc1OCc1ccccc1", 2.26),
    ("CC(C)(O)CNc1ncc(-c2ccnc(Nc3ccncc3)n2)c(CC2CC2)n1", 0.85),
    ("C=CC(=O)Nc1ccc2ncnc(Nc3cccc(Br)c3)c2c1", 0.61),
    ("N#Cc1cccc(-c2c[nH]c3ncnc(N4CCOCC4)c23)c1", 2.7),
    ("COc1ccc(S(=O)(=O)N(CCO)c2ccccc2CN(C)C/C=C/c2ccc(Cl)cc2)cc1 [KN-93 Phosphate]", 0.66),
    ("Cc1[nH]c(/C=C2\\C(=O)Nc3ccc(S(=O)(=O)N(C)c4cccc(Cl)c4)cc32)c(C)c1C(=O)N1CCN(C)CC1", 3.7),
    ("CC(C)(C)NS(=O)(=O)c1cncc(-c2cc(F)c3nc(N)nn3c2)c1", 0.86),
    ("C=CC(=O)Nc1cccc(Oc2nc(Nc3ccc(N4CCN(C)CC4)cc3)nc3ccsc23)c1", 2.66),
    ("C=CC(=O)N1CCC[C@@H](n2nc(-c3ccc(Oc4ccccc4)cc3)c3c(N)ncnc32)C1", 1.16),
    ("CC(C)c1cnn2c(NCc3ccccc3-n3cccn3)nc(OC3CCCNC3)nc12 (stereo not drawn)", 0.74),
    ("COC(=O)N[C@@H](C)CNc1nccc(-c2cn(C(C)C)nc2-c2cc(Cl)cc(NS(C)(=O)=O)c2F)n1", 0.83),
    ("COc1ccc(-c2ccc3ncc4c(c3c2)n(-c2ccc(N3CCNCC3)c(C(F)(F)F)c2)c(=O)n4C)cn1", 2.04),
    ("COc1nccnc1NS(=O)(=O)c1ccc(NC(=O)/C=C/c2ccc([N+](=O)[O-])s2)cc1 [Necrosulfonamide]", 0.83),
    ("CN1CCC(CNc2ccc3ncc(-c4cccc(OC(F)(F)F)c4)n3n2)CC1 [SGI-1776 free base]", 2.78),
    ("COc1cc2ncnc(Nc3ccc(Cl)cc3F)c2cc1OC", 1.3),
    ("Cn1c(Nc2ccc(C(F)(F)F)cc2)nc2cc(Oc3ccnc(-c4ncc(C(F)(F)F)[nH]4)c3)ccc21", 0.26),
]
